target: GST tagged LXRalpha LBD (ligand binding domain) (Homo sapiens); construct: purchased Invitrogen pv4655; assay: LanthaScreen TR-FRET Liver X Receptor Coactivator Assay, LXR alpha-LBD; type: biochemical; settings: activity at max dose (efficacy), relative to reference T0901317; read-out: LXR alpha act @ max dose (%)
quantity: Emax (%)

Previously resolved entries follow.
>>> test_value("CN(C)C(=O)c1ccc(N2CCC(C3CCN(C(=O)C4(C(F)(F)F)CCCCC4)CC3)CC2)cc1Cl [Example A-27]")
70
>>> test_value("CN(Cc1nccs1)C(=O)c1ccc(N2CCC(C3CCN(C(=O)[C@](O)(c4ccccc4)C(F)(F)F)CC3)CC2)cc1Cl [Example E-49]")
30

a: CN(C)C(=O)c1ccc(N2CCC(C3CCN(C(=O)C4(c5ccc(Cl)cc5Cl)CCC4)CC3)CC2)cc1Cl [Example A-77]
b: CN(C)C(=O)c1ccc(N2CCC(C3CCN(C(=O)C4(c5ccccc5F)CCCC4)CC3)CC2)cc1Cl [Example A-45]
Select one: a or b . Criterion: greater recorded Emax. Please identify the chosen entry by its label.
b

---

target: GST tagged LXRalpha LBD (ligand binding domain) (Homo sapiens); assay: LanthaScreen TR-FRET Liver X Receptor Coactivator Assay, LXR alpha-LBD; conditions: Inflection Point (potency), co-activator recruitment, relative to reference T0901317; read-out: LXR alpha IP
pEC50: −log10 of the molar value.
quantity: pEC50

// worked examples, pEC50 included
>>> test_value("CNC(=O)c1ccc(N2CCC(C3CCN(C(=O)C(O)(C(C)C)C(F)(F)F)CC3)CC2)cc1Cl (centres unmarked)")
5.97
>>> test_value("CN(C)C(=O)c1ccc(N2CCC(C3CCN(C(=O)C(C)(C)c4ccc(Cl)cc4Cl)CC3)CC2)cc1Cl")
6.14
>>> test_value("CC(C)(C)OC(=O)NC1CN(C(=O)c2ccc(N3CCC(C4CCN(C(=O)[C@](O)(c5ccccc5)C(F)(F)F)CC4)CC3)cc2Cl)C1")
6.31

P: CN(C)C(=O)c1ccc(N2CCC(C3CCN(C(=O)C4(c5ccccc5Cl)CC4)CC3)CC2)cc1Cl
Q: CC(c1ccon1)N(C)C(=O)c1ccc(N2CCC(C3CCN(C(=O)[C@](O)(c4ccccc4)C(F)(F)F)CC3)CC2)cc1Cl (some centres unmarked)
R: CN(C)C(=O)c1ccc(N2CCC(C3CCN(C(=O)c4c(F)cccc4C(F)(F)F)CC3)CC2)cc1Cl
S: Cc1ccccc1S(=O)(=O)N1CCC(C2CCN(c3ccc(C(=O)N(C)C)c(Cl)c3)CC2)CC1
T: COC(=O)c1ccc(N2CCC(C3CCN(C(=O)c4c(F)cccc4F)CC3)CC2)cc1Cl
Order field: pEC50 | Direction: descending (largest first) Put the labels in the order asked and list them.
T, P, Q, R, S
(T: 7.24, P: 6.17, Q: 5.77, R: 5.45, S: 5.24)

---

target: GST tagged LXRalpha LBD (ligand binding domain) (Homo sapiens, UniProt Q13133); experiment: LanthaScreen TR-FRET Liver X Receptor Coactivator Assay, LXR alpha-LBD; conditions: Inflection Point (potency), co-activator recruitment, relative to reference T0901317; read-out: LXR alpha IP
pEC50: −log10 of the molar value.
quantity: pEC50

>>> test_value("CN(C)C(=O)c1ccc(N2CCC(C3CCN(C(=O)C(c4ccccc4)C(F)(F)F)CC3)CC2)cc1Cl (stereo not drawn)")
5.30
>>> test_value("COc1cccc(C(O)(C(=O)N2CCC(C3CCN(c4ccc(C(=O)N(C)C)c(Cl)c4)CC3)CC2)C(F)(F)C(F)(F)F)c1 (stereo not drawn) [Example A-81]")
5.44
>>> test_value("COc1ccccc1C1(C(=O)N2CCC(C3CCN(c4ccc(C(=O)N(C)C)c(Cl)c4)CC3)CC2)CCC1")
6.30

P: CN(C)C(=O)c1ccc(N2CCC(C3CCN(C(=O)C(O)(C(F)(F)F)C4(C)CC4)CC3)CC2)cc1Cl (stereo not drawn)
Q: CN(C)C(=O)c1ccc(N2CCC(C3CCN(C(=O)C(C)(C)c4ccccc4)CC3)CC2)nc1Cl
Endpoint returns the identifier whose pEC50 is numerically larger, either P or Q . Kindly state the label of the option you pick.
Q
(Q: 6.16, P: 5.67)

---

molecular target: GST tagged LXRbeta LBD (ligand binding domain) (Homo sapiens, UniProt P55055); assay: LanthaScreen TR-FRET Liver X Receptor Coactivator Assay, LXR beta-LBD; conditions: Inflection Point (potency), co-activator recruitment, relative to reference T0901317; read-out: LXR beta IP
Sequence (P55055 222-460 limits assumed): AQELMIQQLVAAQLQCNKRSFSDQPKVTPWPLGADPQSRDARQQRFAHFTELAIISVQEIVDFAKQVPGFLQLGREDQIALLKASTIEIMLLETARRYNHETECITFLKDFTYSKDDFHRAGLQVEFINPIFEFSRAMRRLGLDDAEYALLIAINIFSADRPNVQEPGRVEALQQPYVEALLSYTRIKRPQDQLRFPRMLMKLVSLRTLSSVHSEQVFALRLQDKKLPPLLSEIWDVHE
pEC50: −log10 of the molar value.
quantity: pEC50

Worked set:
>>> test_value("CN(C)C(=O)c1ccc(N2CCC(C3CCN(S(=O)(=O)c4ccccc4Cl)CC3)CC2)cc1Cl")
7.80
>>> test_value("COc1ccccc1C(O)(C(=O)N1CCC(C2CCN(c3ccc(C(=O)N(C)C)c(Cl)c3)CC2)CC1)C(F)(F)F (stereo not drawn)")
6.94
>>> test_value("CN(C)C(=O)c1ccc(N2CCC(C3CCN(C(=O)C(O)(C(F)(F)F)C4(C)CC4)CC3)CC2)cc1Cl (stereo not drawn)")
7.14
>>> test_value("CC(C)C(O)(C(=O)N1CCC(C2CCN(c3ccc(C(=O)N4CCOCC4)c(Cl)c3)CC2)CC1)C(F)(F)F (stereo not drawn)")
6.83
>>> test_value("O=C(c1ccc(N2CCC(C3CCN(C(=O)[C@](O)(c4ccccc4)C(F)(F)F)CC3)CC2)cc1Cl)N1CCCC1")
6.71

A: CN(C)C(=O)c1ccc(N2CCC(C3CCN(C(=O)C(O)(C4CCC4)C(F)(F)F)CC3)CC2)cc1Cl (stereo not drawn)
B: C=CCC(O)(C(=O)N1CCC(C2CCN(c3ccc(C(=O)N(C)C)c(Cl)c3)CC2)CC1)C(F)(F)F (stereo not drawn)
Of A and B , whose reported pEC50 is numerically smaller? Response format: the label of the selected entry.
B

---

Molecular target: GST tagged LXRalpha LBD (ligand binding domain) (Homo sapiens)
Construct: purchased Invitrogen pv4655
Sequence (Q13133 209-447 limits assumed): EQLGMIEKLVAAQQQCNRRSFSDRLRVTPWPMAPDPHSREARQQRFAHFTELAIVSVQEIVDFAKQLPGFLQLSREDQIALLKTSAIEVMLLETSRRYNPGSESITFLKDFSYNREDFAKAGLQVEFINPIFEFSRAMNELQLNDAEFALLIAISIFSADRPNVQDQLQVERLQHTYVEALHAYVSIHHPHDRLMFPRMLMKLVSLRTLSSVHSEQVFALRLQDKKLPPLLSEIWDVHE
Assay: LanthaScreen TR-FRET Liver X Receptor Coactivator Assay, LXR alpha-LBD
Type: biochemical
Conditions: activity at max dose (efficacy), relative to reference T0901317; read-out: LXR alpha act @ max dose (%)
quantity: Emax (%)

A: CC(C)C(O)(C(=O)N1CCC(C2CCN(c3ccc(C(=O)N4CCOCC4)c(Cl)c3)CC2)CC1)C(F)(F)F (stereo not shown)
B: O=C(c1ccc(N2CCC(C3CCN(C(=O)[C@](O)(c4ccccc4)C(F)(F)F)CC3)CC2)cc1Cl)N1CCCC2(CC2)C1
C: O=C(c1ccc(N2CCC(C3CCN(C(=O)[C@](O)(c4ccccc4)C(F)(F)F)CC3)CC2)cc1Cl)N1CCCC1C(F)(F)F (stereo partly shown)
D: C=C(C)CC(O)(C(=O)N1CCC(C2CCN(c3ccc(C(=O)N(C)C)c(Cl)c3)CC2)CC1)C(F)(F)F (stereo not shown)
From the items above, give an ordering by Emax that starts at the lowest reported number. # respond with the labels, arranged in the requested order
B, C, A, D

---

target: GST tagged LXRalpha LBD (ligand binding domain) (Homo sapiens, UniProt Q13133); construct: purchased Invitrogen pv4655; test: LanthaScreen TR-FRET Liver X Receptor Coactivator Assay, LXR alpha-LBD; type: biochemical; conditions: activity at max dose (efficacy), relative to reference T0901317; read-out: LXR alpha act @ max dose (%)
quantity: Emax (%)

Recorded results for 4 molecules are shown here.
>>> test_value("CN(C)C(=O)c1ccc(N2CCC(C3CCN(C(=O)[C@](O)(c4ccccc4)C(F)(F)F)CC3)CC2)cc1Cl")
19
>>> test_value("CC(C)N(C)C(=O)c1ccc(N2CCC(C3CCN(C(=O)[C@](O)(c4ccccc4)C(F)(F)F)CC3)CC2)cc1Cl")
24
>>> test_value("CC(C)C(O)(C(=O)N1CCC(C2CCN(c3ccc(C(=O)N(C)C)c(Cl)n3)CC2)CC1)C(F)(F)F (centres unmarked) [Example B-4]")
48
>>> test_value("CC(C)(C)OC(=O)NC1CN(C(=O)c2ccc(N3CCC(C4CCN(C(=O)[C@](O)(c5ccccc5)C(F)(F)F)CC4)CC3)cc2Cl)C1")
45

1: CN(C)C(=O)c1ccc(N2CCC(C3CCN(C(=O)C4(c5ccccc5)CCCC4)CC3)CC2)cc1Cl
2: CS(=O)(=O)c1ccc(N2CCC(C3CCN(C(=O)[C@](O)(c4ccccc4)C(F)(F)F)CC3)CC2)cc1Cl
3: CN(C)C(=O)c1ccc(N2CCC(C3CCN(C(=O)C(O)(C(F)(F)F)C(F)(F)F)CC3)CC2)nc1Cl
Rank descending by Emax. In plain terms: list the labels in the order you were asked to.
3, 1, 2
(3: 87%, 1: 41%, 2: 20%)

Each recorded value in this set is attributed to patent US20180305332A1.
